# measurement.target: human (hACC2) (Homo sapiens)
# test.details: In vitro ACC inhibition assay (ADP-Glo), hACC2
# Format: biochemical
# stated.conditions: Table 2a, 5 nM ACC2, 20 μM ATP, 20 μM acetyl-CoA
pIC50: −log10 of the molar value.
quantity.kind: pIC50

Illustrative cases are given below, each with its answer.
INSERT INTO assay_data (smiles_data, readout_value) VALUES
  ('COc1ccc(F)cc1[C@H](Cn1c(=O)n(C(C)(C)C(N)=O)c(=O)c2c(C)c(-n3nccn3)sc21)OCCC(=O)C(F)(F)F', '7.40 to 8.00'),
  ('COCCO[C@@H](Cn1c(=O)n(C(C)(C)C(=O)OC2CCC2)c(=O)c2c(C)c(-n3nccn3)sc21)c1cc(F)ccc1OC', '7.40 to 8.00');

Problem: I am curious: what pIC50 value has been reported for COc1ccc(F)cc1[C@H](Cn1c(=O)n(C(C)(C)C(=O)NC(C)C)c(=O)c2c(C)c(-n3nccn3)sc21)OCCC(=O)O ?
Result: 7.40 to 8.00

Problem: Item COc1ccc(F)cc1[C@H](Cn1c(=O)n(C(C)(C)C(=O)NC(C)C)c(=O)c2c(C)c(-n3nccn3)sc21)OCCO has what recorded pIC50?
Result: 8.00 to 8.30

====

# measurement.target: human (hACC2) (Homo sapiens, UniProt O00763)
# Sequence (O00763 whole entry): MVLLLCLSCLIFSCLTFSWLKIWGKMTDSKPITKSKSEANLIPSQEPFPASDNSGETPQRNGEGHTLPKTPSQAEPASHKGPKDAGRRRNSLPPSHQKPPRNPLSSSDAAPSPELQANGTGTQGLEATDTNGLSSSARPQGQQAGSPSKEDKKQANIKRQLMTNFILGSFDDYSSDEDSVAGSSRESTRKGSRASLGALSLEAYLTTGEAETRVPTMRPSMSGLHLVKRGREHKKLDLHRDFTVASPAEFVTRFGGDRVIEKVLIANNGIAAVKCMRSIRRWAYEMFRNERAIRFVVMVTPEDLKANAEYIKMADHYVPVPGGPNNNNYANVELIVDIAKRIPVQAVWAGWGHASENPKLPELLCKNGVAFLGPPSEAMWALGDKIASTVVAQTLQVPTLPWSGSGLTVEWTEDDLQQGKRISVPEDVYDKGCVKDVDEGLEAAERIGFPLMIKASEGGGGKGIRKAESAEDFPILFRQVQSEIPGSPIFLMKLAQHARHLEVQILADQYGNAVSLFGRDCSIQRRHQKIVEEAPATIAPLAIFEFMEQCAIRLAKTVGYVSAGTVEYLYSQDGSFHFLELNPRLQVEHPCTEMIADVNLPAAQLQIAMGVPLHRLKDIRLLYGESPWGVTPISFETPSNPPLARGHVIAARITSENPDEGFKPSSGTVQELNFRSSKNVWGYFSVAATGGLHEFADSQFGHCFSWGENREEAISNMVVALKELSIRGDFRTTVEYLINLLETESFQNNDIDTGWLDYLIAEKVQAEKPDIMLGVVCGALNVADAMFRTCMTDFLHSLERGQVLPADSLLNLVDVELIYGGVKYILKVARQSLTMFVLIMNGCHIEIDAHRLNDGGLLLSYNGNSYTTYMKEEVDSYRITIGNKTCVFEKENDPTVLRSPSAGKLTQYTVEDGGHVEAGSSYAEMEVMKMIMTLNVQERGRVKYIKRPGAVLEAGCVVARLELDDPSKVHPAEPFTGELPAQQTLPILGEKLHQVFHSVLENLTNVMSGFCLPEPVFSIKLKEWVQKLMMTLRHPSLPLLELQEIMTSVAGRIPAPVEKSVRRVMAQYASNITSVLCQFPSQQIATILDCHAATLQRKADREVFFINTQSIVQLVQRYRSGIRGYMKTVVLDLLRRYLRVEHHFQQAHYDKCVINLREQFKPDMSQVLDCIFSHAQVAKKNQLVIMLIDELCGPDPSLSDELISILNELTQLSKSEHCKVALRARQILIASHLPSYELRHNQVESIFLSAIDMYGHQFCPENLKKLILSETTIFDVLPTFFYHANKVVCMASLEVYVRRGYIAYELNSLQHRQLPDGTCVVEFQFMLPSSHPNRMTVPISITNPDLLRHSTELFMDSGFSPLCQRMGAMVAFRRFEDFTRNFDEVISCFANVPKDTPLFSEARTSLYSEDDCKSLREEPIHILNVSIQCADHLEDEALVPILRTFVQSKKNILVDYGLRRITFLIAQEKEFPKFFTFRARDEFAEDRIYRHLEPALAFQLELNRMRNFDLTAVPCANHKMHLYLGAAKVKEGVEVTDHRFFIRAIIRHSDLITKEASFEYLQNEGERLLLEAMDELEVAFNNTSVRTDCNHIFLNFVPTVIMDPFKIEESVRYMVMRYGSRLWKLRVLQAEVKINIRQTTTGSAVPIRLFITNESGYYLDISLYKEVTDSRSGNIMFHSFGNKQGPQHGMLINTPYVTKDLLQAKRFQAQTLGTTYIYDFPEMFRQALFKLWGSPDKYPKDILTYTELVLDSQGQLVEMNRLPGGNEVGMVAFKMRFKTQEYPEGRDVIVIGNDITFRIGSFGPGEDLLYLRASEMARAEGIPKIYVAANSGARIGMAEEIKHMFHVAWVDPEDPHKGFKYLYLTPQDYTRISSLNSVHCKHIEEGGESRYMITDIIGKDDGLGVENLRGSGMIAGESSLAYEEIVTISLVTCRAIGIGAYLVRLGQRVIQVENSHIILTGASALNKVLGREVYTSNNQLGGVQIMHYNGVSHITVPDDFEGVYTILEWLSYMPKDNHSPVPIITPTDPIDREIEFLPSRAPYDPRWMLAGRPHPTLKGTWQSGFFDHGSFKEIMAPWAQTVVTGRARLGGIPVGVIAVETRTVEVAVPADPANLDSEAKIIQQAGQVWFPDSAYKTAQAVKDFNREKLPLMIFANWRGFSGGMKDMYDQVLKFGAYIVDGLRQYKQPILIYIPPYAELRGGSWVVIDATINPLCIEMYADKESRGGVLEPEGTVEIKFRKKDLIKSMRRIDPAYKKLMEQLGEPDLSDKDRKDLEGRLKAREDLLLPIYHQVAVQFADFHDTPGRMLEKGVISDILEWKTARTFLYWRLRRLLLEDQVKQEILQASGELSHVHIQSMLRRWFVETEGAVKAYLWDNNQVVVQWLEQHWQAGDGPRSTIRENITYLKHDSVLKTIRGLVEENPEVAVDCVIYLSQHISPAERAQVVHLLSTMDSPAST
# test.details: In vitro ACC inhibition assay (ADP-Glo), hACC2
# Assay type: biochemical
# stated.conditions: Table 2b, additional results, 5 nM ACC2, 20 μM ATP, 20 μM acetyl-CoA
# Experimental: The detailed procedure is as follows. […] 10 μL ADP glo reagent was added. […] 20 μL kinase detection reagent was added.
pIC50: −log10 of the molar value.
quantity.kind: pIC50

As a guide, the following entries are already answered.
INSERT INTO measurements (compound, readout_value) VALUES
  ('COc1ccc(F)cc1[C@H](Cn1c(=O)n(C(C)(C)C(=O)N2CC=CC2)c(=O)c2c(C)c(-n3nccn3)sc21)OC1CCOCC1', '8.30 to 9.00'),
  ('COc1ccc(Br)cc1[C@H](Cn1c(=O)n(C(C)(C)C(=O)NC(C)C)c(=O)c2c(C)c(-n3nccn3)sc21)OCC(C)(C)C#N', '8.00 to 8.30'),
  ('COc1ccccc1[C@@H](O)Cn1c(=O)n(C(C)(C)C(=O)OCc2ccccc2)c(=O)c2c(C)c(-n3nccn3)sc21', '< 7.40'),
  ('COc1ccc(F)cc1[C@H](Cn1c(=O)n(C(C)(C)C(=O)N2CC=CC2)c(=O)c2c(C)c(-n3nccn3)sc21)OCC(C)O (stereo partly drawn)', '8.30 to 9.00'),
  ('COc1ccc(F)cc1[C@H](Cn1c(=O)n(C(C)(C)C(=O)O)c(=O)c2c(C)c(-n3nccn3)sc21)OC[C@H](C)C#N', '8.30 to 9.00');

Query compound follows.
Problem: Field request: pIC50 | item: COc1ccc(F)cc1[C@H](Cn1c(=O)n(C(C)(C)C(=O)N2CC(O)C2)c(=O)c2c(C)c(-n3nccn3)sc21)OC1CCOCC1
Result: 7.40 to 8.00

====

# measurement.target: human (hACC2) (Homo sapiens, UniProt O00763)
# test.details: In vitro ACC inhibition assay (ADP-Glo), hACC2
# Assay type: biochemical
# stated.conditions: Table 2b, additional results, 5 nM ACC2, 20 μM ATP, 20 μM acetyl-CoA
Catalogue of IC50 readings, one per entry.

Some molecules with known IC50 results, for comparison:
INSERT INTO assay_data (smiles_data, readout_value) VALUES
  ('COc1ccccc1[C@H](Cn1c(=O)n(C(C)(C)C(=O)NC(C)C)c(=O)c2c(C)c(-n3nccn3)sc21)OCCN1CC(F)C1', '> 40 nM'),
  ('COc1ccccc1[C@H](Cn1c(=O)n(C(C)(C)C(=O)NC(C)C)c(=O)c2c(C)c(-n3nccn3)sc21)O[C@H]1CC[C@@H](O)CC1', '5 to 10 nM');

Problem: Please report the recorded IC50 for COc1ccc(Cl)cc1[C@H](Cn1c(=O)n(C(C)(C)C(=O)NC(C)C)c(=O)c2c(C)c(-n3nccn3)sc21)OCC(C)(C)C#N .
Result: 10 to 40 nM

Problem: Quick check: IC50 of COc1ccc(F)cc1[C@H](Cn1c(=O)n(C(C)(C)C(=O)N2CCCC2)c(=O)c2c(C)c(-n3nccn3)sc21)OC1CCOCC1 ?
Result: 5 to 10 nM

Problem: IC50 lookup needed for COc1ccc(F)cc1[C@H](Cn1c(=O)n(C(C)(C)C(=O)O)c(=O)c2c(C)c(-n3nccn3)sc21)OC[C@@H](C)C#N , thanks.
Result: 5 to 10 nM

Problem: # query: IC50 of entry COc1ccc(F)cc1[C@H](Cn1c(=O)n(C(C)(C)C(=O)N2CCCC2)c(=O)c2c(C)c(-n3nccn3)sc21)OC1CCC(=O)CC1
Result: 10 to 40 nM

Problem: Look at this molecule and give its reported IC50. COc1ccc(F)cc1[C@H](Cn1c(=O)n(C(C)(C)C(=O)NO)c(=O)c2c(C)c(-n3nccn3)sc21)OCCCO
Result: 1 to 5 nM

Problem: Can you share its IC50? I mean this molecule: COc1ccccc1[C@@H](O)Cn1c(=O)n([C@@H](C)C(=O)N(C)C(C)C)c(=O)c2c(C)c(-n3nccn3)sc21
Result: 10 to 40 nM

Problem: Give its IC50 value. Item: COc1ccc(F)cc1[C@H](Cn1c(=O)n(C(C)(C)C(=O)N2CCCCC2)c(=O)c2c(C)c(-n3nccn3)sc21)OCC(C)C
Result: 10 to 40 nM

Problem: Value lookup for IC50; key = COc1ccccc1[C@H](Cn1c(=O)n([C@@H](C)C(=O)N(C)C(C)C)c(=O)c2c(C)c(-n3nccn3)sc21)OCCC#N
Result: 1 to 5 nM

Problem: What does the data say about its IC50? Entry: COc1ccc(F)cc1[C@H](Cn1c(=O)n([C@H](C)C(=O)N(C)C(C)C)c(=O)c2c(C)c(-n3nccn3)sc21)OCC(C)(C)O
Result: > 40 nM

Problem: Returns the measured IC50 for the input molecule. Input: COc1ccccc1[C@H](Cn1c(=O)n(C(C)(C)C(=O)N2CCCCC2)c(=O)c2c(C)c(-n3nccn3)sc21)OC1CCOCC1
Result: 5 to 10 nM

====

# measurement.target: UniProtKB O00763
# test.details: In vitro ACC inhibition assay (ADP-Glo), hACC2
# Format: biochemical
# stated.conditions: Table 2a, 5 nM ACC2, 20 μM ATP, 20 μM acetyl-CoA
# IC50 per entry

Take a look at these entries with their results.
INSERT INTO results (smiles_data, measurement_target, readout_value) VALUES
  ('COc1ccccc1[C@H](Cn1c(=O)n(C(C)(C)C(=O)N2CCCC2)c(=O)c2c(C)c(-n3nccn3)sc21)OC1CCOCC1', 'UniProtKB O00763', '5 to 10 nM'),
  ('COc1ccc(F)cc1[C@H](Cn1c(=O)n(C(C)(C)C(=O)N2CCCC2)c(=O)c2c(C)c(-n3nccn3)sc21)OCCCO', 'UniProtKB O00763', '1 to 5 nM'),
  ('COc1ccc(F)cc1[C@H](Cn1c(=O)n(C(C)(C)C(=O)N2CC=CC2)c(=O)c2c(C)c(-n3nccn3)sc21)OC(C)C', 'UniProtKB O00763', '5 to 10 nM');

Problem: // lookup IC50 for COc1ccc(F)cc1[C@H](Cn1c(=O)n(C(C)(C)C(=O)N2CCCC2)c(=O)c2c(C)c(-n3nccn3)sc21)OCCN(C)C
Result: > 40 nM

Problem: What value of IC50 has been recorded for this entry: COc1ccc(F)cc1[C@H](Cn1c(=O)n([C@H](C)C(=O)N(C)C(C)C)c(=O)c2c(C)c(-n3nccn3)sc21)OCCO
Result: 10 to 40 nM

Problem: What IC50 value was documented for this compound, COc1ccc(F)cc1[C@H](Cn1c(=O)n(C(C)(C)C(=O)O)c(=O)c2c(C)c(-n3nccn3)sc21)O[C@H]1CC[C@@H](C#N)CC1 ?
Result: 10 to 40 nM

====

Parameter: IC50. Scope: all listed entries.
# measurement.target: human (hACC2) (Homo sapiens, UniProt O00763)
# test.details: In vitro ACC inhibition assay (ADP-Glo), hACC2
# Type: biochemical
# stated.conditions: Table 2a, 5 nM ACC2, 20 μM ATP, 20 μM acetyl-CoA

Reference set (5 entries):
INSERT INTO measurements (molecule, readout_value) VALUES
  ('COc1ccc(F)cc1[C@H](Cn1c(=O)n(C(C)(C)C(=O)O)c(=O)c2c(C)c(-n3nccn3)sc21)OCC(C)C', '1 to 5 nM'),
  ('COc1ccc(F)cc1[C@H](Cn1c(=O)n(C(C)(C)C(=O)N2CCCC2)c(=O)c2c(C)c(-n3nccn3)sc21)OCC(C)C', '10 to 40 nM'),
  ('COc1ccc(F)cc1[C@H](Cn1c(=O)n(C(C)(C)C(=O)NC(C)C)c(=O)c2c(C)c(-n3nccn3)sc21)OC(C)(C)C(C)=O', '10 to 40 nM'),
  ('COc1ccc(F)cc1[C@H](Cn1c(=O)n(C(C)(C)C(=O)NC(C)C)c(=O)c2c(C)c(-n3nccn3)sc21)OC[C@@H](C)C#N', '1 to 5 nM'),
  ('COc1ccc(F)cc1[C@H](Cn1c(=O)n(C(C)(C)C(=O)NC(C)C)c(=O)c2c(C)c(-n3nccn3)sc21)OC(C)C', '5 to 10 nM');

Problem: Entry under review: COc1ccc(F)cc1[C@H](Cn1c(=O)n(C(C)(C)C(=O)NC(C)C)c(=O)c2c(C)c(-n3nccn3)sc21)O[C@H]1CC[C@@H](C#N)CC1 . Reported IC50?
Result: 10 to 40 nM

Problem: Which measured IC50 value corresponds to COc1ccccc1[C@H](Cn1c(=O)n(C(C)(C)C(N)=O)c(=O)c2c(C)c(-n3nccn3)sc21)OCCC#N ?
Result: 1 to 5 nM

Problem: IC50 for COCCO[C@@H](Cn1c(=O)n(CC(=O)N2CCCC2)c(=O)c2c(C)c(-n3nccn3)sc21)c1cc(F)ccc1OC ?
Result: 10 to 40 nM

Problem: Item under review: COc1ccc(F)cc1[C@H](Cn1c(=O)n(C(C)(C)C(=O)NC(C)(C)C)c(=O)c2c(C)c(-n3nccn3)sc21)OCCCO . Reported IC50?
Result: 5 to 10 nM
